Below, each entry is listed alongside its reported IC50.
Target: UniProt:P00797
Sequence (P00797 whole entry): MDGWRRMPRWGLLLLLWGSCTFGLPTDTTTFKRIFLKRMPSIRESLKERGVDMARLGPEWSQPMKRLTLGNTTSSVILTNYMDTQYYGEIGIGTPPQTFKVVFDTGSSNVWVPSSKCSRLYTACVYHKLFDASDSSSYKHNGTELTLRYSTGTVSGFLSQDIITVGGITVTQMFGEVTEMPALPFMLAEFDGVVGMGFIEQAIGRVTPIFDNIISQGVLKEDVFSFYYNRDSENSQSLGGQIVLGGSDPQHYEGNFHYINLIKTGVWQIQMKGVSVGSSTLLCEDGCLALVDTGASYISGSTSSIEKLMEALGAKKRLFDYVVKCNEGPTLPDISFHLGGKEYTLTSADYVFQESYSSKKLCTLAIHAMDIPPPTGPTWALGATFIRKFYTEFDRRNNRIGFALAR
Assay: Inhibition of human plasma renin.
Numbered stars: 1 amine (or outer) side, 2 acyl side, 3 side chain; on linkers, the order of the positions; unused ones are H or OH. Square brackets hold non-standard residues; d marks the D form. Peptide text beside a SMILES is read from it. * marks the point of attachment. ξ: configuration not given here. LeuΨ(ξCHOHCH2)Val = CC(C)C[C@H](N[*:1])C(O)C[C@H](C(=O)[*:2])C(C)C; X1 = CC(C)[C@H](C[C@H](O)[C@H](CC1CCCCC1)N[*:1])C(=O)[*:2]; Suberoyl(NMe-taurine) = CN(CCS(=O)(=O)O)C(=O)CCCCCCC(=O)*; X3 = CC(C)C[C@H](N[*:1])[C@@H](O)C[C@H](C(=O)[*:2])C(C)C; NH(2-picolyl-N-oxide) = [O-][n+]1ccccc1CN*; γGlu = O=C(O)[C@H](CCC(=O)[*:2])N[*:1]; NMeH = CN[C@@H](Cc1c[nH]cn1)C(=O)O; NHCH2(2-pyridyl) = c1ccc(CN*)nc1; X4 = O=C(CCCO[P+]([O-])(O)O)*; X5 = O=C(CCCOP(=O)(O)O)*; X2 = O=C(COP(=O)(O)O)*
test readout: IC50 (pM)

compound	tested target	quantity unit	value reported
CC[C@H](C)[C@H](NC(=O)[C@@H](C[C@H](O)[C@H](CC(C)C)NC(=O)[C@H](Cc1c[nH]cn1)N(C)C(=O)[C@H](Cc1ccccc1)NC(=O)[C@@H]1CCCN1C(=O)COP(=O)(O)O)C(C)C)C(=O)NCc1ccccn1 (X2-PF[NMeH][X3]I-{NHCH2(2-pyridyl)})	UniProt:P00797	pM	1600
CC[C@H](C)[C@H](NC(=O)[C@@H](CC(O)[C@H](CC(C)C)NC(=O)[C@H](Cc1cnc[nH]1)N(C)C(=O)[C@H](Cc1ccccc1)NC(=O)[C@@H]1CCCN1C(=O)CCCO[P+]([O-])(O)O)C(C)C)C(=O)NCc1cccc[n+]1[O-] (some centres undefined) (X4-PF[NMeH][LeuΨ(ξCHOHCH2)Val]I-{NH(2-picolyl-N-oxide)})	UniProt:P00797	pM	1900
CC[C@H](C)[C@H](NC(=O)[C@@H](CC(O)[C@H](CC(C)C)NC(=O)[C@H](Cc1c[nH]cn1)N(C)C(=O)[C@H](Cc1ccccc1)NC(=O)[C@@H]1CCCN1C(=O)COP(=O)(O)O)C(C)C)C(=O)NCc1cccc[n+]1[O-] (some centres undefined) (X2-PF[NMeH][LeuΨ(ξCHOHCH2)Val]I-{NH(2-picolyl-N-oxide)})	UniProt:P00797	pM	2500
CC[C@H](C)[C@H](NC(=O)[C@@H](C[C@H](O)[C@H](CC1CCCCC1)NC(=O)[C@H](Cc1c[nH]cn1)N(C)C(=O)[C@H](Cc1ccccc1)NC(=O)[C@@H]1CCCN1C(=O)CC[C@H](N)C(=O)O)C(C)C)C(=O)NCc1cccc[n+]1[O-] (γGlu-PF[NMeH][X1]I-{NH(2-picolyl-N-oxide)})	UniProt:P00797	pM	320
CC[C@H](C)[C@H](NC(=O)[C@@H](C[C@H](O)[C@H](CC1CCCCC1)NC(=O)[C@H](Cc1c[nH]cn1)N(C)C(=O)[C@H](Cc1ccccc1)NC(=O)CC(C)(C)N)C(C)C)C(=O)NCc1ccccn1	UniProt:P00797	pM	290
CC[C@H](C)[C@H](NC(=O)[C@@H](C[C@H](O)[C@H](CC1CCCCC1)NC(=O)[C@H](Cc1c[nH]cn1)N(C)C(=O)[C@H](Cc1ccccc1)NC(=O)CC(C)(C)N)C(C)C)C(=O)NCc1cccc[n+]1[O-]	UniProt:P00797	pM	430
CC[C@H](C)[C@H](NC(=O)[C@@H](CC(O)[C@H](CC(C)C)NC(=O)[C@H](Cc1c[nH]cn1)N(C)C(=O)[C@H](Cc1ccccc1)NC(=O)[C@@H]1CCCN1C(=O)CCCCCCC(=O)N(C)CCS(=O)(=O)O)C(C)C)C(=O)NCc1cccc[n+]1[O-] (some centres undefined) ({Suberoyl(NMe-taurine)}-PF[NMeH][LeuΨ(ξCHOHCH2)Val]I-{NH(2-picolyl-N-oxide)})	UniProt:P00797	pM	310
CC[C@H](C)[C@H](NC(=O)[C@@H](CC(O)[C@H](CC(C)C)NC(=O)[C@H](Cc1c[nH]cn1)N(C)C(=O)[C@H](Cc1ccccc1)NC(=O)[C@@H]1CCCN1C(=O)CCCCCCC(=O)N(C)CCS(=O)(=O)O)C(C)C)C(=O)NCc1ccccn1 (some centres undefined) ({Suberoyl(NMe-taurine)}-PF[NMeH][LeuΨ(ξCHOHCH2)Val]I-{NHCH2(2-pyridyl)})	UniProt:P00797	pM	1800
CC[C@H](C)[C@H](NC(=O)[C@@H](C[C@H](O)[C@H](CC(C)C)NC(=O)[C@H](Cc1c[nH]cn1)N(C)C(=O)[C@H](Cc1ccccc1)NC(=O)CCCCCCC(=O)N(C)CCS(=O)(=O)O)C(C)C)C(=O)NCc1ccccn1	UniProt:P00797	pM	660
CC(C)CCNC(=O)[C@@H](C[C@H](O)[C@H](CC1CCCCC1)NC(=O)[C@H](Cc1c[nH]cn1)N(C)C(=O)[C@H](Cc1ccccc1)NC(=O)[C@@H]1CCCN1C(=O)CC[C@H](N)C(=O)O)C(C)C	UniProt:P00797	pM	280
CC(C)CCNC(=O)[C@@H](C[C@H](O)[C@H](CC1CCCCC1)NC(=O)[C@H](Cc1c[nH]cn1)N(C)C(=O)[C@H](Cc1ccccc1)NC(=O)CC(C)(C)N)C(C)C	UniProt:P00797	pM	410
CC[C@H](C)[C@H](NC(=O)[C@@H](C[C@H](O)[C@H](CC1CCCCC1)NC(=O)[C@H](Cc1c[nH]cn1)N(C)C(=O)[C@H](Cc1ccccc1)NC(=O)[C@@H]1CCCN1C(=O)CC[C@H](N)C(=O)O)C(C)C)C(=O)NCc1ccccn1 (γGlu-PF[NMeH][X1]I-{NHCH2(2-pyridyl)})	UniProt:P00797	pM	290
CC[C@H](C)[C@H](NC(=O)[C@@H](C[C@H](O)[C@H](CC(C)C)NC(=O)[C@H](Cc1c[nH]cn1)N(C)C(=O)[C@H](Cc1ccccc1)NC(=O)CCCCCCC(=O)N(C)CCS(=O)(=O)O)C(C)C)C(=O)NCc1cccc[n+]1[O-]	UniProt:P00797	pM	1200
CC[C@H](C)[C@H](NC(=O)[C@@H](C[C@H](O)[C@H](CC(C)C)NC(=O)[C@H](Cc1c[nH]cn1)N(C)C(=O)[C@H](Cc1ccccc1)NC(=O)[C@@H]1CCCN1C(=O)CCCOP(=O)(O)O)C(C)C)C(=O)NCc1ccccn1 (X5-PF[NMeH][X3]I-{NHCH2(2-pyridyl)})	UniProt:P00797	pM	450

These entries and their values trace back to ChEMBL document CHEMBL1125875.
